- system.under.test: JAK3 (Homo sapiens (Human), UniProt P52333)
- Sequence (P52333 whole entry): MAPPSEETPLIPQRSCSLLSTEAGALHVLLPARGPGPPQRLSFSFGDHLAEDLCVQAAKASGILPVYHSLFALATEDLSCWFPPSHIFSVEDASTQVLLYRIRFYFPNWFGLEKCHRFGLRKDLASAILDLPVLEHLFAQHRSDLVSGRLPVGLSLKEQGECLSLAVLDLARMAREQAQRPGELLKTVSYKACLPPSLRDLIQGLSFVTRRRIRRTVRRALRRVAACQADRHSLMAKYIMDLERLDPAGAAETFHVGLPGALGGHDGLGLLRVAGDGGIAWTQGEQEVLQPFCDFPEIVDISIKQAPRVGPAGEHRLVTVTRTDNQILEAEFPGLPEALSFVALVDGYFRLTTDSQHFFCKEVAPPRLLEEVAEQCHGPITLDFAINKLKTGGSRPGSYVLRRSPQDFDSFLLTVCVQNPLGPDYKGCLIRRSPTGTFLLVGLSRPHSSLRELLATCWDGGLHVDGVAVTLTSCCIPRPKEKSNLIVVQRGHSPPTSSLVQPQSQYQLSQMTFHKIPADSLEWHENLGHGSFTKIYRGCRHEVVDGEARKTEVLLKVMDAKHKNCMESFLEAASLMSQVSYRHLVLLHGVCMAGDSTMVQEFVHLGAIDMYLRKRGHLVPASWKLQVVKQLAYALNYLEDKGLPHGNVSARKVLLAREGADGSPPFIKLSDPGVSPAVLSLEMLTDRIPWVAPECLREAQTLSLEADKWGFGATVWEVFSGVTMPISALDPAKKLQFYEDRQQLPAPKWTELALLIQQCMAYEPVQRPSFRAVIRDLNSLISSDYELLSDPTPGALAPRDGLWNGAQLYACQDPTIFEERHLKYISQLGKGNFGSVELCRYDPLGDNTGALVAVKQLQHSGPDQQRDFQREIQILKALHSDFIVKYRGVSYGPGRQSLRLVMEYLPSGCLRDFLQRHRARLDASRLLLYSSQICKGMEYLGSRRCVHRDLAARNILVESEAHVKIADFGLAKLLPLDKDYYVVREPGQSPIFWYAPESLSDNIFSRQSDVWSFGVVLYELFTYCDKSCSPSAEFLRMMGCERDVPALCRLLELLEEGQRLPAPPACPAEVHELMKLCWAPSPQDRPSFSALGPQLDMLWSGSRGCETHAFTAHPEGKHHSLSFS
- assay.procedure: Z'-LYTE enzymatic activity detection, JAK3
- Type: biochemical
- applied.conditions: test compound 30 nM; read-out: JAK3 % inhibitory rate @30 nM
measured.quantity: inhibition at 0.03 µM (%)

INSERT INTO results (chemical_string, measured_quantity, units_of_measure, reported_result) VALUES
  ('C=CC(=O)N(C)c1cc(Nc2ncc(Cl)c(NCCCNC(=O)c3ccc(C#N)cc3)n2)ccc1F', 'inhibition at 0.03 µM', '%', 63),
  ('C=CC(=O)N(C)c1cc(Nc2ncc(Cl)c(NCCCNC(=O)c3c(F)cc(F)cc3F)n2)ccc1F', 'inhibition at 0.03 µM', '%', 104),
  ('C=CC(=O)Nc1cc(Nc2ncc(Cl)c(NCCCNC(=O)c3ccc(C#N)cc3)n2)ccc1F', 'inhibition at 0.03 µM', '%', 81),
  ('C=CC(=O)N(C)c1cc(Nc2ncc(Cl)c(NCCCNC(=O)c3ccc(C(F)F)cc3)n2)ccc1F', 'inhibition at 0.03 µM', '%', 81),
  ('C=CC(=O)N(C)c1cc(Nc2ncc(Cl)c(NCCCNC(=O)c3ccncc3)n2)ccc1F', 'inhibition at 0.03 µM', '%', 121),
  ('C=CC(=O)Nc1cc(Nc2ncc(Cl)c(NCCCNC(=O)c3ccc(C(F)(F)F)cc3)n2)ccc1F', 'inhibition at 0.03 µM', '%', 79),
  ('C=CC(=O)N(C)c1cc(Nc2ncc(Cl)c(NCCCNC(=O)c3ccc(F)cc3)n2)ccc1F', 'inhibition at 0.03 µM', '%', 81),
  ('C=CC(=O)N(C)c1cc(Nc2ncc(Cl)c(NCCCNC(=O)Cc3ccc(C#N)cc3)n2)ccc1F', 'inhibition at 0.03 µM', '%', 105);
